Where do these numbers come from? They come from patent US20240139185A1.

# Tested on: pERK in H358 cells
# ASSAY_PROTOCOL: pERK inhibition in H358 cells
# Assay type: cell-based, human
# CONDITION_DESCRIPTION: 4 hours treatment, read-out: Cellular pERK inhibition
ASSAY_READOUT: IC50

Query string: Return reported IC50; argument: CCN1CCC(=O)N2C[C@H](C)COC(=O)[C@@H]3CCCN(N3)C(=O)[C@@H](NC(=O)[C@H](C(C)C)N(C)C(=O)C3CN(C(=O)CCl)C3)Cc3cc(O)cc(c3)-c3ccc1c2c3 [Compound 186]
Result string: > 10 µM

Query string: Return reported IC50; argument: C=CC(=O)N1CCC(C(=O)N(C)C(C(=O)NC2Cc3cc(O)cc(c3)-c3ccc4c(C(C)(C)C#N)cn(c4c3)CC(C)(C)COC(=O)C3CCCN(N3)C2=O)C(C)C)C1 (stereo not shown) [Compound 89]
Result string: 1 to 10 µM

Query string: Return reported IC50; argument: C=CC(=O)N1CCC(C(=O)N(C)C(C(=O)NC2Cc3cc(O)cc(c3)-c3ccc4c(-c5c(COC)noc5C)cn(c4c3)CC(C)(C)COC(=O)C3CCCN(N3)C2=O)C(C)C)C1 (stereo not shown) [Compound 394]
Result string: > 10 µM

Query string: Return reported IC50; argument: C=CC(=O)N1CCN(C(=O)N(C)[C@H](C(=O)N[C@H]2Cc3cc(O)cc(c3)-c3ccc4c(C(C)(C)C#N)cn(c4c3)CC(C)(C)COC(=O)[C@@H]3CCCN(N3)C2=O)C(C)C)CC1 [Compound 344]
Result string: 1 to 10 µM

Query string: Return reported IC50; argument: CC(C)[C@@H](C(=O)N[C@H]1Cc2cc(O)cc(c2)-c2ccc3c(-c4ccn(C)n4)cn(c3c2)CC(C)(C)COC(=O)[C@@H]2CCCN(N2)C1=O)N(C)C(=O)C1CN(C(=O)CCl)C1 [Compound 257]
Result string: 1 to 10 µM

Query string: Return reported IC50; argument: CC(C)[C@@H](C(=O)N[C@H]1Cc2cc(O)cc(c2)-c2ccc3c(Cc4cccnc4)cn(c3c2)C[C@H](C)COC(=O)[C@@H]2CCCN(N2)C1=O)N(C)C(=O)C1CN(C(=O)CCl)C1 [Compound 70]
Result string: > 10 µM

Query string: Return reported IC50; argument: CC1COC(=O)C2CCCN(N2)C(=O)C(NC(=O)C(C(C)C)N(C)C(=O)C2CN(C(=O)CCl)C2)Cc2cc(O)cc(c2)-c2ccc3c(c2)N(C1)CC3(C)CCC#N (mixture of isomers) [Compound 225]
Result string: 1 to 10 µM

Query string: Return reported IC50; argument: CC(C)[C@@H](C(=O)N[C@H]1Cc2cc(O)nc(c2)-c2ccc3c(C(C)(C)C#N)cn(c3c2)CC(C)(C)COC(=O)[C@@H]2CCCN(N2)C1=O)N(C)C(=O)C1CN(C(=O)CCl)C1 [Compound 339]
Result string: > 10 µM

Query string: Return reported IC50; argument: Cc1cc2ccc3cc2n1CC(C)(C)COC(=O)[C@@H]1CCCN(N1)C(=O)[C@@H](NC(=O)[C@H](C(C)C)N(C)C(=O)C1CN(C(=O)CCl)C1)Cc1cc(O)cc-3c1 [Compound 103]
Result string: 1 to 10 µM

Query string: Return reported IC50; argument: CC(C)[C@@H](C(=O)N[C@H]1Cc2cc(O)cc(c2)-c2ccc3c(C(C#N)C4CC4)cn(c3c2)C[C@H](C)COC(=O)[C@@H]2CCCN(N2)C1=O)N(C)C(=O)C1CN(C(=O)CCl)C1 (stereo partly shown) [Compound 78]
Result string: 1 to 10 µM

Query string: Return reported IC50; argument: CCc1cn2c3cc(ccc13)-c1cc(O)cc(c1)CC(NC(=O)C(C(C)C)N(C)C(=O)C1CN(C(=O)CCl)C1)C(=O)N1CCCC(N1)C(=O)OCC(C)(C)C2 (stereo not shown) [Compound 99]
Result string: ≤ 1 µM

Query string: Return reported IC50; argument: CC1COC(=O)[C@@H]2CCCN(N2)C(=O)[C@@H](NC(=O)[C@H](C(C)C)N(C)C(=O)C2CN(C(=O)CCl)C2)Cc2cc(O)cc(c2)-c2ccc3c(c2)N(CCO3)C1 (single isomer, unassigned) [Compound 183]
Result string: 1 to 10 µM

Query string: Return reported IC50; argument: CC#CC(=O)N1CC2(CCN([C@H](C(=O)N[C@H]3Cc4cc(O)cc(c4)-c4ccc5c(C(C)(C)C#N)cn(c5c4)CC(C)(C)COC(=O)[C@@H]4CCCN(N4)C3=O)C(C)C)C2=O)C1 [Compound 259]
Result string: > 10 µM

Query string: Return reported IC50; argument: Cc1nc2ccc3cc2n1CC1(CC1)COC(=O)[C@@H]1CCCN(N1)C(=O)[C@@H](NC(=O)[C@H](C(C)C)N(C)C(=O)C1CN(C(=O)CCl)C1)Cc1cc(O)cc-3c1 [Compound 151]
Result string: > 10 µM

Query string: Return reported IC50; argument: CC(C)[C@@H](C(=O)N[C@H]1Cc2cc(O)cc(c2)-c2ccc3c(C4CC4)cn(c3c2)C[C@H](C)COC(=O)[C@@H]2CCCN(N2)C1=O)N(C)C(=O)C1CN(C(=O)CCl)C1 [Compound 117]
Result string: ≤ 1 µM

Query string: Return reported IC50; argument: CC(C)[C@@H](C(=O)N[C@H]1Cc2cc(O)cc(c2)-c2ccc3c(-c4cccnc4)cn(c3c2)C[C@H](C)COC(=O)[C@@H]2CCCN(N2)C1=O)N(C)C(=O)C1CN(C(=O)CCl)C1 [Compound 51]
Result string: 1 to 10 µM

Query string: Return reported IC50; argument: COc1ccccc1-c1cn2c3cc(ccc13)-c1cc(O)cc(c1)CC(NC(=O)C(C(C)C)N(C)C(=O)C1CN(C(=O)CCl)C1)C(=O)N1CCCC(N1)C(=O)OCC(C)C2 (stereo not shown) [Compound 48]
Result string: 1 to 10 µM

Query string: Return reported IC50; argument: CC(C)[C@@H](C(=O)N[C@H]1Cc2cc(O)cc(c2)-c2ccc3c(-c4ccccc4F)cn(c3c2)CC(C)(C)COC(=O)[C@@H]2CCCN(N2)C1=O)N(C)C(=O)C1CN(C(=O)CCl)C1 [Compound 242]
Result string: 1 to 10 µM

Query string: Return reported IC50; argument: CC(C)[C@@H](C(=O)N[C@H]1Cc2cc(O)cc(c2)-c2ccc3nnn(c3c2)CC(C)(C)COC(=O)[C@@H]2CCCN(N2)C1=O)N(C)C(=O)C1CN(C(=O)CCl)C1 [Compound 175]
Result string: > 10 µM
